system-under-test: P64K-VEGFKDR- (human) (UniProt P15692)
Sequence (P15692 other isoform, or with tags, fused parts or gaps, stated change not applied): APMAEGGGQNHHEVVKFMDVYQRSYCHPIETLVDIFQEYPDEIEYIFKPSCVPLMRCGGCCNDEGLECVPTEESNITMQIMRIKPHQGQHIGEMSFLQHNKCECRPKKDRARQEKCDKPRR
experiment: ELISA; antigen coated 1 µg/ml; Fab 10 µg/mL; 9E10-peroxidase
attribute-measured: absorbance at 492 nm

Example results:
[[record]]
binder = "Fab L3H5 (Fab, V domains shown, Entries lack the six histidines and c-myc of the heavy chain) VH: QVQLVQSGAEVKKPGESLKISCKGSGYSFTSYWIGWVRQMPGKGLEWMGIIYPGDSDTRYSPSFQGQVTISADKSISTAYLQWSSLKASDTAMYYCARLVHRYRAIWGQGTMVTVSS VL: QAVVTQEPSLTVSPGGTVTLTCASSTGAVTSGNYPNWFQQRPGQPPRALIYSTSNKHSWTPARFSGSLLGGKAALTLSGAQPEDEAEYYCRLSYDLARPVFGGGTKLTVLG"
result = 2.51

[[record]]
binder = "Fab L3H6 (Fab, V domains shown, The entries are the mature chains without the six histidines and c-myc that the heavy chain carried at its C-terminus in the assay) VH: QVQLVQSGAEVKKPGESLKISCKGSGYSFTSYWIGWVRQMPGKGLEWMGIIYPGDSDTRYSPSFQGQVTISADKSISTAYLQWSSLKASDTAMYYCARQGTHNRKIWGQGTMVTVSS VL: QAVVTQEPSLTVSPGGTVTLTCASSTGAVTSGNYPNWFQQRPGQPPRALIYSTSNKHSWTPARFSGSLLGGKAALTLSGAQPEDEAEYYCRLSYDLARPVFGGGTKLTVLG"
result = 2.6

[[record]]
binder = "Fab L3H7 (Fab, V domains shown, Entries lack the six histidines and c-myc of the heavy chain) VH: QVQLVQSGAEVKKPGESLKISCKGSGYSFTSYWIGWVRQMPGKGLEWMGIIYPGDSDTRYSPSFQGQVTISADKSISTAYLQWSSLKASDTAMYYCARPYATDTRIWGQGTMVTVSS VL: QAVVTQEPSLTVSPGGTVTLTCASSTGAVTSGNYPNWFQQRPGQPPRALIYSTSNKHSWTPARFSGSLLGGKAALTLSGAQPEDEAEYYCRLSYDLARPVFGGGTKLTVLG"
result = 2.42


Lab book: absorbance at 492 nm of Fab 2H1-32 (Fab, V domains shown) VH: QVQLVQSGAEVKKPGESLKISCKGSGYSFTSYWIGWVRQMPGKGLEWMGIIYPGDSDTRYSPSFQGQVTISADKSISTAYLQWSSLKASDTAMYYCARLVVRDTEIWGQGTMVTVSS VL: QAVVTQEPSLTVSPGGTVTLTCASSIGAVTSGNYPNWFQQRPGQPPRALIYSTSNKHSWTPARFSGSLLGGKAALTLSGAQPEDEAEYYCLLSYSGARPVFGGGTKLTVLG noted as 0.704
